Experiment: Acute toxicity assay in BALB/c mice
Assay type: in vivo
Conditions: mouse, in vivo; within 24 h, male BALB/c mice, one-time treatment
readout_label: LD50 at 24 h

[[record]]
item_smiles = "Cc1ccc2nc(C(F)(F)F)nc(N(C)c3ccc(OC(F)F)cc3)c2c1"
measured_value = "200 to 500 mg/kg"


Entry source: paper PMC12249509
